The following compounds are shown together with reported pKi values.
Test system: Histamine H4 receptor (Homo sapiens)
Assay text: Displacement of [3H]histamine from human histamine H4 receptor expressed in Sf9 cells co-expressing Gai2 and Gb1c2 subunit
pKi: −log10 of the molar value.
Experimental endpoint: pKi

* C=CCCNC(=O)OCCCc1c[nH]cn1 | 5.42
* O=C(NCCc1ccc(Cl)cc1)OCCCc1c[nH]cn1 | 5.17
* O=C(NCCCCC1CCCCC1)OCCCc1c[nH]cn1 | 5.30
* O=C(NCCCC1CCCCC1)OCCCc1c[nH]cn1 | 5.35

---

Test system: Histamine H1 receptor (Cavia porcellus)
Assay text: Antagonist activity at histamine H1 receptor in guinea pig ileum
Format: tissue-based
Experimental endpoint: pKb

• O=C(NCCCCOc1ccccc1)OCCCc1c[nH]cn1 = 4.27
• O=C(NCCC1CCCCC1)OCCCc1c[nH]cn1 = 3.96
• O=C(NCCc1ccc(Cl)cc1)OCCCc1c[nH]cn1 = 4.82

---

Assay read-out Ki; system under study: Histamine H3 receptor (Homo sapiens, UniProt Q9Y5N1).
Sequence (Q9Y5N1 whole entry): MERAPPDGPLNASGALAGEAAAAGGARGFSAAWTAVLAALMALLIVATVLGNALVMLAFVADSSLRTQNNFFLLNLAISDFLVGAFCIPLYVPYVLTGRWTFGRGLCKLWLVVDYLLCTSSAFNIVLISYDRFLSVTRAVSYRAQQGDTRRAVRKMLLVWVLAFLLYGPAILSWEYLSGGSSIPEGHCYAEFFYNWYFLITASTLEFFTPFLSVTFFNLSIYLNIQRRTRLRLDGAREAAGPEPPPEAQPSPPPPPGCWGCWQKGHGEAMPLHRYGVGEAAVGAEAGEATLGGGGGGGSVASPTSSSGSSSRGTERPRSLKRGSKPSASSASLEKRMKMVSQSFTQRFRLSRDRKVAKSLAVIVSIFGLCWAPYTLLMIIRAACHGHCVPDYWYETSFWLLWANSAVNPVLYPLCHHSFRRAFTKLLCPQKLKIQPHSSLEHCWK
Experimental endpoint: Ki (nM)

• O=C(NCCCCOc1ccccc1)OCCCc1c[nH]cn1 = 1050
• O=C(NCCC1CC1)OCCCc1c[nH]cn1 = 170
• O=C(NCCCC1CCCCC1)OCCCc1c[nH]cn1 = 851
• O=C(NCCOc1ccccc1Cl)OCCCc1c[nH]cn1 = 708
• O=C(NCCc1ccc(Cl)cc1)OCCCc1c[nH]cn1 = 427
• O=C(NCCCCC1CCCCC1)OCCCc1c[nH]cn1 = 1950

---

Test system: Histamine H1 receptor (Cavia porcellus)
Assay text: Antagonist activity at histamine H1 receptor in guinea pig ileum
Format: tissue-based
Let's look at some molecules and their measured pKb.
Experimental endpoint: pKb

• O=C(NCCC1CC1)OCCCc1c[nH]cn1 = 3.8
• O=C(NCCCOc1ccccc1)OCCCc1c[nH]cn1 = 4.34
• C=CCCCNC(=O)OCCCc1c[nH]cn1 = 3.9
• O=C(NCCCC1CCCCC1)OCCCc1c[nH]cn1 = 4.97

---

In this section, each of the molecules is paired with its reported pKi.
Test system: Histamine H4 receptor (Homo sapiens, UniProt Q9H3N8)
Sequence (Q9H3N8 whole entry): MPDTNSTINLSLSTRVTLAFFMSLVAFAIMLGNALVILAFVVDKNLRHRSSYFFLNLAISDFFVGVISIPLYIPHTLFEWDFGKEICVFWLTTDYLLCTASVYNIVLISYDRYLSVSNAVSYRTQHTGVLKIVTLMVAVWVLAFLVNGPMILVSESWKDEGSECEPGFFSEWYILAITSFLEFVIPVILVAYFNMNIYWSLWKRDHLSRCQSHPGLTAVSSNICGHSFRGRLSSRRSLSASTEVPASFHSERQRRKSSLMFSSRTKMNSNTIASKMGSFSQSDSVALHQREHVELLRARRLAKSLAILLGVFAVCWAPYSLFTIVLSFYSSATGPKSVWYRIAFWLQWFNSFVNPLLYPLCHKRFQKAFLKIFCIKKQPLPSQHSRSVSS
Assay text: Displacement of [3H]histamine from human histamine H4 receptor expressed in Sf9 cells co-expressing Gai2 and Gb1c2 subunit
pKi: −log10 of the molar value.
Experimental endpoint: pKi

* O=C(NCCC1CC1)OCCCc1c[nH]cn1 | 5.81
* CC/C=C/CCNC(=O)OCCCc1c[nH]cn1 | 4.88
* CCC/C=C/CNC(=O)OCCCc1c[nH]cn1 | 5.15
* CCC(C)CCNC(=O)OCCCc1c[nH]cn1 (configuration not stated) | 5.91
* O=C(NCCC1CCCCC1)OCCCc1c[nH]cn1 | 5.81
* C=CCCCNC(=O)OCCCc1c[nH]cn1 | 4.38
* O=C(NCCOc1ccccc1Cl)OCCCc1c[nH]cn1 | 4.79

---

Test system: UniProtKB P31389
Sequence (P31389 whole entry): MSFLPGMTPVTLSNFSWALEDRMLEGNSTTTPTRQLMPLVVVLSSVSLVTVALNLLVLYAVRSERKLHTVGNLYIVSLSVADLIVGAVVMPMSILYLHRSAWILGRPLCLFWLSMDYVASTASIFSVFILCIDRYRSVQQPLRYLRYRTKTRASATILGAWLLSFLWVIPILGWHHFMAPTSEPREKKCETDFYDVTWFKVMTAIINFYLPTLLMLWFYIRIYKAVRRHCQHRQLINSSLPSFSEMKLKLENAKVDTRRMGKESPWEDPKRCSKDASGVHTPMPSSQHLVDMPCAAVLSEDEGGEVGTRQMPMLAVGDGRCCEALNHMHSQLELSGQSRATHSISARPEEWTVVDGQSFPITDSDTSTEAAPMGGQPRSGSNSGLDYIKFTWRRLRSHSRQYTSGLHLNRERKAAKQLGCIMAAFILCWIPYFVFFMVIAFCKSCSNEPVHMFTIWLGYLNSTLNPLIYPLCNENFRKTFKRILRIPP
Assay text: Antagonist activity at histamine H1 receptor in guinea pig ileum
Format: tissue-based
Experimental endpoint: pKb

• C=CCCNC(=O)OCCCc1c[nH]cn1 = < 4
• O=C(NCCCCC1CCCCC1)OCCCc1c[nH]cn1 = < 5.52
• S=C(NC1CCCCC1)N1CCC(c2cnc[nH]2)CC1 = < 5
